# measured on: human β3 (Homo sapiens)
# Construct: used as a probe to obtain the full length human β3 gene from a human genomic library; expressed in transfected cells; host or cells: CHO (Chinese hamster ovary) cells, pcDNA3 vector
# assay protocol: Human β3-agonist activities (cAMP in transfected CHO cells)
# Type: cell-based
# experimental conditions: CHO; Relative activities (%) as compared with isoproterenol; read-out: Intrinsic activity*
Counter-ions that a name gives are not always drawn.
result type: Emax (%)

| molecule | unit abbreviation | Emax |
| --- | --- | --- |
| CCOC(=O)CCc1[nH]c2cc(OCCNC[C@H](O)c3ccc(F)c(NS(C)(=O)=O)c3)ccc2c1C | % | 63 |
| CCOC(=O)CCc1[nH]c2cc(OCCNC[C@H](O)c3cccc(NS(C)(=O)=O)c3)ccc2c1C | % | 81 |

I. Cc1c(-c2ccncc2)[nH]c2cc(OCCNC[C@H](O)c3cccc(NS(C)(=O)=O)c3)ccc12
II. Cc1c(-c2cccnc2)[nH]c2cc(OCCNC[C@H](O)c3cccc(NS(C)(=O)=O)c3)ccc12
Could you point out whether the larger Emax belongs to I or to II ? To answer, give the label that identifies your chosen option.
II
(II: 105%, I: 71%)

A. COc1n[nH]c2cc(OCCNC[C@H](O)c3cccc(NS(C)(=O)=O)c3)ccc12
B. CCOC(=O)CCc1c(C)[nH]c2cc(OCCNC[C@H](O)c3cccc(NS(C)(=O)=O)c3)ccc12
Could you point out whether the larger Emax belongs to A or to B ? To answer, give the label that identifies your chosen option.
A
(A: 64%, B: 38%)

P. CNS(=O)(=O)c1cc([C@@H](O)CNCCOc2ccc3c(C)n[nH]c3c2)ccc1O
Q. CCOC(=O)CCc1c(CC)[nH]c2cc(OCCNC[C@H](O)c3cccc(NS(C)(=O)=O)c3)ccc12
Of P versus Q , which is the one with smaller reported Emax? To answer, give the label that identifies your chosen option.
Q
(Q: 55%, P: 80%)

a. Cc1n[nH]c2cc(OCCNC[C@H](O)c3cccc(NS(C)(=O)=O)c3)ccc12 [Example 84, hydrochloride]
b. Cc1n[nH]c2cc(OCCNC[C@H](O)c3ccc(Cl)c(NS(C)(=O)=O)c3)ccc12
Of a versus b , which is the one with smaller reported Emax? To answer, give the label that identifies your chosen option.
b
(b: 52%, a: 81%)

###

# measured on: human β3 (Homo sapiens, UniProt P13945)
# Construct: used as a probe to obtain the full length human β3 gene from a human genomic library; expressed in transfected cells; host or cells: CHO (Chinese hamster ovary) cells, pcDNA3 vector
# Sequence (P13945 whole entry): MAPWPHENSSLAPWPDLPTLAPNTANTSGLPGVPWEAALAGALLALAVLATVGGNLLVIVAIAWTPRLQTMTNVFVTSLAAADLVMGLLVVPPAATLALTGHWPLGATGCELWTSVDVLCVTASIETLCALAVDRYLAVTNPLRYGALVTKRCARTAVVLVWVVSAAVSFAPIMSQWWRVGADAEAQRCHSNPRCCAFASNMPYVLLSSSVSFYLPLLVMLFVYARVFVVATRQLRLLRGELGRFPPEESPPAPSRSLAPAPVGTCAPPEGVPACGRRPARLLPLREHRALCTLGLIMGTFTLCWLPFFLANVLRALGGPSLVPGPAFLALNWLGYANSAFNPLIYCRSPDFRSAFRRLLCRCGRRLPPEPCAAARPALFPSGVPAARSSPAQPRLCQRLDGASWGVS
# assay protocol: Human β3-agonist activities (cAMP in transfected CHO cells)
# Format: cell-based
# experimental conditions: CHO; Relative activities (%) as compared with isoproterenol; read-out: Intrinsic activity*
Counter-ions that a name gives are not always drawn.
result type: Emax (%)

| compound | Emax, % |
| --- | --- |
| Cc1c(CCC(=O)N(C)C)[nH]c2cc(OCCNC[C@H](O)c3cccc(NS(C)(=O)=O)c3)ccc12 [Example 81] | 77 |
| Cc1c(-c2cccnc2)[nH]c2cc(OCCNC[C@H](O)c3ccc(F)c(NS(C)(=O)=O)c3)ccc12 [Example 79] | 65 |
| Cc1c(C2CCCN(C(=O)OC(C)(C)C)C2)[nH]c2cc(OCCNC[C@H](O)c3cccc(NS(C)(=O)=O)c3)ccc12 (stereo partly drawn) [Example 75] | 79 |
| CCc1c(-c2cccnc2)[nH]c2cc(OCCNC[C@H](O)c3cccc(NS(C)(=O)=O)c3)ccc12 [Example 73] | 75 |
| CCOC(=O)c1[nH]c2cc(OCCNC[C@H](O)c3cccc(NS(C)(=O)=O)c3)ccc2c1C [Example 1, hydrochloride] | 97 |
| Cc1c(C(=O)O)[nH]c2cc(OCCNC[C@H](O)c3cccc(NS(C)(=O)=O)c3)ccc12 [Example 2] | 124 |

Cited source for all entries: patent US7271190B2
